# credit: patent US20220347175A1

Please respond with reported Nav1.1 current amplification rate (%) for every item in the list.
SYSTEM: human Nav1.1 (Homo sapiens)
Construct: host or cells: HEK293
MEASUREMENT_PROTOCOL: Amplification of Nav1.1-derived voltage-dependent sodium current (Nav1.1 current), cell line stably expressing human Nav1.1, automated patch clamp
Type: cell-based
MEASUREMENT_PARAMETERS: 10 μmol/L compound; change of the area under the curve of Nav1.1 current (Test Result 1)
Numbers only, in %.

Worked cases, Nav1.1 current amplification rate (%) given:
MOLECULE: CC1CC=C(c2ccc(=O)n(CC(=O)N3CCN(c4ccccn4)CC3)n2)CC1 (racemic) [Example 394]
Nav1.1 current amplification rate (%): 98
--
MOLECULE: COCOc1cccc2c1CCN2C(=O)Cn1nc(C2=CCC(C)(C)CC2)ccc1=O [Example 435]
Nav1.1 current amplification rate (%): 262
--
MOLECULE: CC1(C)CC=C(c2ccc(=O)n(CC(=O)Nc3ccn4ccnc4c3)n2)CC1 [Example 425]
Nav1.1 current amplification rate (%): 283
--
MOLECULE: CC1CC=C(c2ccc(=O)n(CC(=O)N3CCN(c4ccncc4)CC3)n2)CC1 (racemic) [Example 261]
Nav1.1 current amplification rate (%): 60
--
MOLECULE: CC1CCN(c2ccc(=O)n(CC(=O)Nc3ccc4oc(=O)n(C)c4c3)n2)CC1 [Example 81]
Nav1.1 current amplification rate (%): 69
--
MOLECULE: CC1CCN(c2ccc(=O)n(CC(=O)Nc3cncc(Cl)c3)n2)CC1 [Example 63]
Nav1.1 current amplification rate (%): 49
--
MOLECULE: O=C(Cn1nc(-c2cc(Cl)cs2)ccc1=O)Nc1ccc2ocnc2c1 [Example 454]
Nav1.1 current amplification rate (%): 157

Could you tell me which Nav1.1 current amplification rate (%) is on file for COc1cc(-c2cc(Cl)cs2)nn(CC(=O)Nc2ccn3ccnc3c2)c1=O [Example 466] ?
233

----------
SYSTEM: human Nav1.1 (Homo sapiens, UniProt P35498)
Construct: host or cells: HEK293
MEASUREMENT_PROTOCOL: Amplification of Nav1.1-derived voltage-dependent sodium current (Nav1.1 current), cell line stably expressing human Nav1.1, automated patch clamp
Assay type: cell-based
MEASUREMENT_PARAMETERS: compound 1 μmol/L; HEK293 stably expressing human Nav1.1
Kindly state Nav1.1 current amplification rate (%) for each of the entries shown.
Answers are plain numbers, in %.

Past entries and their recorded results:
COMPOUND: CC1CC=C(c2ccc(=O)n(CC(=O)N3CCc4c3ccnc4N3CCOCC3)n2)CC1 (racemic) [Example 319]
SYSTEM: human Nav1.1 (Homo sapiens, UniProt P35498)
Nav1.1 current amplification rate (%): 134

COMPOUND: CC1CC=C(c2ccc(=O)n(CC(=O)Nc3ccn4ncnc4c3)n2)CC1 (racemic) [Example 330]
SYSTEM: human Nav1.1 (Homo sapiens, UniProt P35498)
Nav1.1 current amplification rate (%): 191

COMPOUND: CC1CC=C(c2ccc(=O)n(CC(=O)Nc3ccnc(N4CCOCC4)c3F)n2)CC1 (racemic) [Example 383]
SYSTEM: human Nav1.1 (Homo sapiens, UniProt P35498)
Nav1.1 current amplification rate (%): 84

COMPOUND: CC1CC=C(c2ccc(=O)n(CC(=O)N3CCc4c(CN5CC6CC5CO6)cccc43)n2)CC1 (mixture of isomers) [Example 278]
SYSTEM: human Nav1.1 (Homo sapiens, UniProt P35498)
Nav1.1 current amplification rate (%): 204

COMPOUND: CC1CC=C(c2ccc(=O)n(CC(=O)N3CCc4c(Cn5ccnc5)cccc43)n2)CC1 (racemic) [Example 286]
SYSTEM: human Nav1.1 (Homo sapiens, UniProt P35498)
Nav1.1 current amplification rate (%): 848

COMPOUND: Cc1cc(NC(=O)Cn2nc(C3=CCC(C)CC3)ccc2=O)cn2ncnc12 (racemic) [Example 349]
SYSTEM: human Nav1.1 (Homo sapiens, UniProt P35498)
Nav1.1 current amplification rate (%): 101

# context switch: different compound, same Nav1.1 current amplification rate (%)
GET /values?readout=Nav1.1 current amplification rate (%)&item= CC1CC=C(c2ccc(=O)n(CC(=O)Nc3ccc4ncnn4c3)n2)CC1 (racemic) [Example 339]
127

----------
SYSTEM: human Nav1.1 (Homo sapiens)
Construct: host or cells: HEK293
MEASUREMENT_PROTOCOL: Amplification of Nav1.1-derived voltage-dependent sodium current (Nav1.1 current), cell line stably expressing human Nav1.1, automated patch clamp
Assay type: cell-based
MEASUREMENT_PARAMETERS: 10 μmol/L compound (Test Result 5)
The label is YES for Nav1.1 current amplification rate (%) below 50% and NO for Nav1.1 current amplification rate (%) equal to or exceeding 50%.

Take a look at these entries with their results.
MOLECULE: N#Cc1ccc(NC(=O)Cn2nc(N3CC4CC4C3)ccc2=O)cc1 (centres unmarked) [Example 18]
SYSTEM: human Nav1.1 (Homo sapiens)
QUALITATIVE_LABEL: YES
//
MOLECULE: CC1CC=C(c2ccc(=O)n(CC(=O)N3CC=C(c4ccccc4)C3)n2)CC1 (racemic) [Example 388]
SYSTEM: human Nav1.1 (Homo sapiens)
QUALITATIVE_LABEL: YES
//
MOLECULE: CC1CC=C(c2ccc(=O)n(CC(=O)N3CCc4c(C5CN(C(C)C)C5)cccc43)n2)CC1 (racemic) [Example 304]
SYSTEM: human Nav1.1 (Homo sapiens)
QUALITATIVE_LABEL: NO
//
MOLECULE: N#Cc1ccc(NC(=O)Cn2nc(C3=CCCCC3)ccc2=O)cc1 [Example 39]
SYSTEM: human Nav1.1 (Homo sapiens)
QUALITATIVE_LABEL: NO
//
MOLECULE: CC1CC=C(c2ccc(=O)n(CC(=O)N3CC=C(c4ccccn4)CC3)n2)CC1 (centres unmarked) [Example 420]
SYSTEM: human Nav1.1 (Homo sapiens)
QUALITATIVE_LABEL: YES

hey, is Nav1.1 current amplification rate (%) for COC1CCN(c2ccc(=O)n(CC(=O)Nc3ccc(C#N)cc3)n2)CC1 [Example 9] lower than 50% or not?
YES

----------
For each record, write down the corresponding Nav1.1 current amplification rate (%).
SYSTEM: human Nav1.1 (Homo sapiens, UniProt P35498)
Construct: host or cells: HEK293
MEASUREMENT_PROTOCOL: Amplification of Nav1.1-derived voltage-dependent sodium current (Nav1.1 current), cell line stably expressing human Nav1.1, automated patch clamp
Format: cell-based
MEASUREMENT_PARAMETERS: 10 μmol/L compound (Test Result 5)
Form field: result (number plus unit)

Some compounds with known Nav1.1 current amplification rate (%) results, for comparison:
COMPOUND: CC1(C)CC=C(c2ccc(=O)n(CC(=O)Nc3ccc(C#N)cc3)n2)CC1
Nav1.1 current amplification rate (%): 216%

COMPOUND: CC1CCN(c2ccc(=O)n(CC(=O)Nc3ccc(C#N)cc3)n2)C1 (centres unmarked)
Nav1.1 current amplification rate (%): 98%

COMPOUND: CC1CC=C(c2ccc(=O)n(CC(=O)Nc3ccnc(CN4CCOCC4)c3)n2)CC1 (racemic)
Nav1.1 current amplification rate (%): 35%

COMPOUND: CCCCN(C)c1ccc(=O)n(CC(=O)Nc2ccc(C#N)cc2)n1
Nav1.1 current amplification rate (%): 77%

COMPOUND: CC1CC=C(c2ccc(=O)n(CC(=O)Nc3ccc(C4=CCN(C)C4)nc3)n2)CC1 (racemic)
Nav1.1 current amplification rate (%): 18%

Could you tell me Nav1.1 current amplification rate (%) for each of these compounds? They are listed below.
1. N#Cc1ccc(NC(=O)Cn2nc(N3CCC4(CCC4)C3)ccc2=O)cc1
2. Cc1ccc(-c2ccc(=O)n(CC(=O)Nc3ccnnc3)n2)cc1
3. CC1CC=C(c2ccc(=O)n(CC(=O)Nc3ccnc(-c4cnn(C)c4)c3)n2)CC1 (racemic)

311%
34%
147%

----------
SYSTEM: human Nav1.5 (Homo sapiens, UniProt Q14524)
Construct: expressed in transfected cells; host or cells: CHO-K1 (T-REx System, ThermoFisher Scientific)
Sequence (Q14524 1-2015 isoform Q14524-2): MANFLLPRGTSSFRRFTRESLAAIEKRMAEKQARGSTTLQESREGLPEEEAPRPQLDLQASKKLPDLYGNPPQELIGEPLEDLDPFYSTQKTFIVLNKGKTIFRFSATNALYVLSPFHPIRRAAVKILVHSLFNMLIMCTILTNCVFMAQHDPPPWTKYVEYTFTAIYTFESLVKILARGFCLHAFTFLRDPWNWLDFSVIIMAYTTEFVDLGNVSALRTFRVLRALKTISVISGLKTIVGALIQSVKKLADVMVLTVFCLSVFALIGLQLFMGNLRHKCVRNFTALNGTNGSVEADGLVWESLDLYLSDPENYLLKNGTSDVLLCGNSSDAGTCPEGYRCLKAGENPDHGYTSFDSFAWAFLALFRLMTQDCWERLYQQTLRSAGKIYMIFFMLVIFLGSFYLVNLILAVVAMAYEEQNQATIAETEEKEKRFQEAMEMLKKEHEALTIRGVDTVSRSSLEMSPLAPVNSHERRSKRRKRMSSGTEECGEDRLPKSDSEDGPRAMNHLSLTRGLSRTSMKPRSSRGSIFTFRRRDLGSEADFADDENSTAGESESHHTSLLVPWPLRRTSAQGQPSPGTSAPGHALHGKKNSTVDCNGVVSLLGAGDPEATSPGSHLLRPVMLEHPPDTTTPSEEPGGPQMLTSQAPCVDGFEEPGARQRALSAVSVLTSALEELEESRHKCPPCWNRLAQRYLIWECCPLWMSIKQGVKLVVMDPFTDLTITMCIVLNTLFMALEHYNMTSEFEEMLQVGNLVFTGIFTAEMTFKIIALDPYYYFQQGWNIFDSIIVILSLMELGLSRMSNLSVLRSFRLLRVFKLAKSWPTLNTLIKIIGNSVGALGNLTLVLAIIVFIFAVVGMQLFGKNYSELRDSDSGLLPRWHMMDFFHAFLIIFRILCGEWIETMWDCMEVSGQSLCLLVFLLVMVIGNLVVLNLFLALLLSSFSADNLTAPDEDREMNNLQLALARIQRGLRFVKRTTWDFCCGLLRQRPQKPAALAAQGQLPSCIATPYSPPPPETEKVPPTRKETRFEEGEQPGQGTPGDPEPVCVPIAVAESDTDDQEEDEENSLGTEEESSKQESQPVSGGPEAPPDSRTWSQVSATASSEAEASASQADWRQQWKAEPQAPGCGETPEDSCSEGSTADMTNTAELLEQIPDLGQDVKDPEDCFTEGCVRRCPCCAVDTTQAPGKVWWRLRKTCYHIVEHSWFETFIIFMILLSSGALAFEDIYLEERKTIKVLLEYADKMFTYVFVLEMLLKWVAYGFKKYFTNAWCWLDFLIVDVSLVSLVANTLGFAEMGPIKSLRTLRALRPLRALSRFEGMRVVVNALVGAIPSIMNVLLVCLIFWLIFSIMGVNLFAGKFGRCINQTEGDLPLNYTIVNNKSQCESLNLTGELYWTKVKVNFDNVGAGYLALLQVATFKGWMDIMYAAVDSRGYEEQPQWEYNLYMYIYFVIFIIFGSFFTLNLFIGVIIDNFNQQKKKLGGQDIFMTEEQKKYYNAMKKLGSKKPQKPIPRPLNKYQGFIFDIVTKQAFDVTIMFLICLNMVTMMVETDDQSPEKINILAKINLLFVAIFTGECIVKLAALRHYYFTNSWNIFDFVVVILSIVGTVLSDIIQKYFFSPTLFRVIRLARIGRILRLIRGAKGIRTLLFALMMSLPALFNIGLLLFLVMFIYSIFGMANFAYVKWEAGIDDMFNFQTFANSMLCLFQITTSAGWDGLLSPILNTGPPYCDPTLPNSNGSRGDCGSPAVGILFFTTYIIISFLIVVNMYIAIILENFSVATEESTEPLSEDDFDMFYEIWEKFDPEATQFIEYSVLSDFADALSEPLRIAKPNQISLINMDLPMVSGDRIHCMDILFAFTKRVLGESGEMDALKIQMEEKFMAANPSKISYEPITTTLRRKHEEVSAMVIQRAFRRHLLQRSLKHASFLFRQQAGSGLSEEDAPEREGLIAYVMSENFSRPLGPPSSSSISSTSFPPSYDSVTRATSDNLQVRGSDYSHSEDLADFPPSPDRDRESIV
MEASUREMENT_PROTOCOL: Amplification of Nav1.5-derived voltage-dependent sodium current (Nav1.5 current), cell line stably expressing human Nav1.5, automated patch clamp
Type: cell-based
MEASUREMENT_PARAMETERS: compound 1 μmol/L; CHO-K1 stably expressing human Nav1.5
MEASUREMENT_TYPE: Nav1.5 current amplification rate (%)
Give bare numbers, in %.

Previously resolved entries follow.
MOLECULE: CC1CC=C(c2ccc(=O)n(CC(=O)N3CCc4c(CN5CC6CC5CO6)cccc43)n2)CC1 (mixture of isomers)
Nav1.5 current amplification rate (%): 27

MOLECULE: CC1CC=C(c2ccc(=O)n(CC(=O)N3CCc4c(-c5cn[nH]c5)cncc43)n2)CC1 (racemic)
Nav1.5 current amplification rate (%): 52

MOLECULE: Cc1cc(NC(=O)Cn2nc(C3=CCC(C)CC3)ccc2=O)cc2ncnn12 (racemic)
Nav1.5 current amplification rate (%): 34

Okay, now this molecule:
For COc1cc(C2=CCC(C)(C)CC2)nn(CC(=O)N2CCc3c(N4CCOCC4)cccc32)c1=O , what is its reported Nav1.5 current amplification rate (%)?
75
